B1: tRNA (parent)
chain: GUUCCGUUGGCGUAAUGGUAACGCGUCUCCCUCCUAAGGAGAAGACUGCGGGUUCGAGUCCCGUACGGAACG

# Variants of: B1
# test-method-notes: yeast fitness relative to wild type (ratio to wild type); higher = fitter; tRNA-Arg(CCU), competitive growth, 37 C, YPD
Fewer inactive variants are shown than the library holds.
Here the recorded yeast fitness is given for each entry.

mut	yeast fitness
G6A G39C U54C	≤ 0.5
C24A U26A C31A C55A U64C	≤ 0.5
U8A G9A A37U C46U C61U C66U	≤ 0.5
U8C G12A C29U U35G C62U	≤ 0.5
G23C U26C C46G C55U	≤ 0.5
A20C A43U A69C	0.605
G38C C61U	0.646
C22A C27G U28A C30A C34G G48C	≤ 0.5
A15U G17C A45U C49G A70U	0.528
A21G A42G A45G	0.989
U7C A37G A42C C49G C61U G63A	≤ 0.5
C5A G48C A57U	≤ 0.5
